Measured melting point of individual entries

These recorded examples may help you get a feel for the data.
- compound: "Cc1cccc2c(=O)n3c(cc12)-c1cc(Cl)ccc1NC3"
  melting point: "240.5 to 242.1 °C"
- compound: "O=c1c2ccccc2cc2n1CNc1ccccc1-2"
  melting point: "204.3 to 206.3 °C"
- compound: "COc1ccc2c(=O)n3c(cc2c1)-c1cc(Cl)ccc1NC3"
  melting point: "203.9 to 205.2 °C"
- compound: "Cc1ccc2cc3n(c(=O)c2c1)CNc1ccccc1-3"
  melting point: "213.2 to 214.5 °C"
- compound: "Cc1ccc2c(=O)n3c(cc2c1)-c1ccc(Cl)cc1NC3"
  melting point: "210 to 211.5 °C"

Q: Give the value of melting point reported for the following: "Cc1cc2cc3n(c(=O)c2cc1C)CNc1ccccc1-3"
Result: 212.7 to 214.2 °C

Q: Give the value of melting point reported for the following: "Cc1cccc2c(=O)n3c(cc12)-c1ccccc1NC3"
Result: 226.5 to 228.1 °C

Q: Give the value of melting point reported for the following: "COc1ccc2c(=O)n3c(cc2c1)-c1ccc(Cl)cc1NC3"
Result: 213.6 to 215.1 °C
